src = ChEMBL document CHEMBL1201862

- System: SK-MEL-2
- Assay comment: NCI tumour cell line growth inhibition, 48 h
Active and inactive are the calls of the source. Rule as the data show it: active = GI50 up to about 1.1 µM and inactive = higher.
Measurement name: GI50

Consider the reported GI50 for these molecules:
Cc1ccc(C)c(NC(=O)CC/C(=N\NC(=O)C(=O)NN)C(C)C(=O)c2ccc(O)cc2)c1 (stereo not given) = > 100 µM (inactive)
CC(=O)OC1COC(N2C(=O)C(=O)c3ccccc32)C(OC(C)=O)C1OC(C)=O (stereo not given) = > 100 µM (inactive)
COc1ccc2c(c1)CC1COc3cc(OC)ccc3C1O2 (stereo not given) = > 100 µM (inactive)
O=C1C/C(=C/c2ccc(/C=C3/CC(=O)N(c4cccc(Br)c4)C3=O)cc2)C(=O)N1c1cccc(Br)c1 = > 100 µM (inactive)
O=C(CC1(O)C(=O)Nc2c(Cl)ccc(Cl)c21)c1ccc(Cl)cc1Cl (stereo not given) = 21.3 µM (inactive)

In plain terms, CCOC(=O)c1c(SCCO)n(-c2ccccc2)c(=S)n(-c2ccccc2)c1=O has a documented GI50 of > 100 µM (inactive)

The molecule listed as O=c1[nH]c(=O)n(C2OC(CO)C(O)C2O)c2ccsc12 (stereo not given) has a reported GI50 of > 100 µM (inactive)
